Hello, the source for this data is ChEMBL document CHEMBL1127046, in case you need it.

species: Homo sapiens; experiment: Inhibition of growth of hepatoma HLE cell line; format: functional; details: read-out: ED50 (the source's name)
Below, each of the molecules is paired with its reported EC50 value.
Please make sure the unit comes right after the number.

COc1cc([C@@H]2c3cc4c(cc3[C@@H](O[C@@H]3O[C@@H]5CO[C@@H](C)O[C@H]5[C@H](O)[C@H]3O)[C@H]3COC(=O)[C@H]23)OCO4)cc(OC)c1O [ETOPOSIDE]
1.5 µg/mL
COc1cc([C@@H]2c3cc4c(cc3[C@@H](CCN(C)CCN3CCCCC3)C3COC(=O)[C@@H]32)OCO4)cc(OC)c1O.Cl.Cl (stereo not given in full)
0.36 µg/mL
COc1cc([C@@H]2c3cc4c(cc3[C@@H](CCN(C)CCN(C)C)C3COC(=O)[C@@H]32)OCO4)cc(OC)c1O.Cl.Cl (stereo not given in full)
0.23 µg/mL
COc1cc([C@@H]2c3cc4c(cc3[C@@H](CCN3CCN(C)CC3)C3COC(=O)[C@@H]32)OCO4)cc(OC)c1O.Cl.Cl (stereo not given in full)
0.13 µg/mL

Ask: I would be grateful if you could share the reported EC50 for COc1cc([C@@H]2c3cc4c(cc3[C@@H](CCN3CCC(N5CCCCC5)CC3)C3COC(=O)[C@@H]32)OCO4)cc(OC)c1O.Cl.Cl (stereo not given in full) .
Reply: 0.31 µg/mL

###

test: Inhibition of DNA topoisomerase II from rat liver measured as 50% reduction in the amount of minicircle DNA relative to the control
assay metric: IC50

Would you please look over these solved cases?
COc1cc([C@@H]2c3cc4c(cc3[C@@H](CCN(C)CCCCCCN(C)C)C3COC(=O)[C@@H]32)OCO4)cc(OC)c1O.Cl.Cl (stereo partly drawn)
30 µM
COc1cc([C@@H]2c3cc4c(cc3[C@@H](CCN(C)Cc3ccncc3)C3COC(=O)[C@@H]32)OCO4)cc(OC)c1O.Cl.Cl (stereo partly drawn)
31.4 µM

Turning now to a further compound:
Ask: Quick one: IC50 for COc1cc([C@@H]2c3cc4c(cc3[C@@H](O[C@@H]3O[C@@H]5CO[C@@H](C)O[C@H]5[C@H](O)[C@H]3O)[C@H]3COC(=O)[C@H]23)OCO4)cc(OC)c1O [ETOPOSIDE] ?
Reply: 59.2 µM

###

# EC50 annotations
test: Inhibition of growth of renal cancer G-402 cell line; type: functional; conditions: Homo sapiens, read-out: ED50 (the source's name)
Provide only the numeric value, understood in µg/mL.

Worked set:
COc1cc([C@@H]2c3cc4c(cc3[C@@H](CCN3CCN(C)CC3)C3COC(=O)[C@@H]32)OCO4)cc(OC)c1O.Cl.Cl (stereo not given in full)
0.25
COc1cc([C@@H]2c3cc4c(cc3[C@@H](CCN(C)CCN3CCCCC3)C3COC(=O)[C@@H]32)OCO4)cc(OC)c1O.Cl.Cl (stereo not given in full)
0.35
COc1cc([C@@H]2c3cc4c(cc3[C@@H](CCN3CCC(N5CCCCC5)CC3)C3COC(=O)[C@@H]32)OCO4)cc(OC)c1O.Cl.Cl (stereo not given in full)
0.18
COc1cc([C@@H]2c3cc4c(cc3[C@@H](O[C@@H]3O[C@@H]5CO[C@@H](C)O[C@H]5[C@H](O)[C@H]3O)[C@H]3COC(=O)[C@H]23)OCO4)cc(OC)c1O [ETOPOSIDE]
4.8

Now look at this one.
Ask: Report EC50 for COc1cc([C@@H]2c3cc4c(cc3[C@@H](CCN(C)CCN(C)C)C3COC(=O)[C@@H]32)OCO4)cc(OC)c1O.Cl.Cl (stereo not given in full) please.
Reply: 0.33

###

test: Inhibition of DNA topoisomerase II from rat liver measured as 50% reduction in the amount of minicircle DNA relative to the control
One threshold, 80 µM, splits the recorded IC50 values: lower ones are class 1, equal or higher ones are class 0.

COc1cc([C@@H]2c3cc4c(cc3[C@@H](CCN3CCC[C@@H]3CO)C3COC(=O)[C@@H]32)OCO4)cc(OC)c1O.Cl (stereo partly specified)
class 0
COc1cc([C@@H]2c3cc4c(cc3[C@@H](CCN3CCCCC3)C3COC(=O)[C@@H]32)OCO4)cc(OC)c1O.Cl (stereo partly specified)
class 1
COc1cc([C@@H]2c3cc4c(cc3[C@@H](CCN(C)Cc3ccccn3)C3COC(=O)[C@@H]32)OCO4)cc(OC)c1O.Cl.Cl (stereo partly specified)
class 1
COc1cc([C@@H]2c3cc4c(cc3[C@@H](CCN(C)CCO)C3COC(=O)[C@@H]32)OCO4)cc(OC)c1O.Cl (stereo partly specified)
class 1
COCCN(C)CC[C@@H]1c2cc3c(cc2[C@@H](c2cc(OC)c(O)c(OC)c2)[C@H]2C(=O)OCC12)OCO3.Cl (stereo partly specified)
class 1

Next up:
Ask: Please determine if COc1cc([C@@H]2c3cc4c(cc3[C@@H](CCO)C3COC(=O)[C@@H]32)OCO4)cc(OC)c1O (stereo partly specified) is below 80 µM in terms of IC50.
Reply: class 1

###

experiment: Inhibition of DNA topoisomerase II from rat liver measured as 50% reduction in the amount of minicircle DNA relative to the control
assay metric: pIC50
For clarity, pIC50 is expressed as the negative log10 of concentration in mol/L.

Solved cases (4 shown):
COc1cc([C@@H]2c3cc4c(cc3[C@@H](CCNCCN(C)C)C3COC(=O)[C@@H]32)OCO4)cc(OC)c1O.Cl.Cl (some centres not stated)
4.88
COc1cc([C@@H]2c3cc4c(cc3[C@@H](CC(=O)NCCN3CCCCC3)C3COC(=O)[C@@H]32)OCO4)cc(OC)c1O.Cl (some centres not stated)
4.22
COc1cc([C@@H]2c3cc4c(cc3[C@@H](CCN3CCC(N5CCCCC5)CC3)C3COC(=O)[C@@H]32)OCO4)cc(OC)c1O.Cl.Cl (some centres not stated)
4.53
COc1cc([C@@H]2c3cc4c(cc3[C@@H](CCN(C)CCN3CCCCC3)C3COC(=O)[C@@H]32)OCO4)cc(OC)c1O.Cl.Cl (some centres not stated)
4.22

Ask: Can you share its pIC50? I mean this molecule: COc1cc([C@@H]2c3cc4c(cc3[C@@H](CC(=O)N(C)CCN(C)C)C3COC(=O)[C@@H]32)OCO4)cc(OC)c1O.Cl (some centres not stated)
Reply: 3.60

Ask: What would you report for COc1cc([C@@H]2c3cc4c(cc3[C@@H](CCN3CCN(C)CC3)C3COC(=O)[C@@H]32)OCO4)cc(OC)c1O.Cl.Cl (some centres not stated) ?
Reply: 4.47

Ask: Queued: COc1cc([C@@H]2c3cc4c(cc3[C@@H](CCN(C)CCN(C)C)C3COC(=O)[C@@H]32)OCO4)cc(OC)c1O.Cl.Cl (some centres not stated)
Reply: 4.49

###

assay: Inhibition of DNA topoisomerase II from rat liver measured as 50% reduction in the amount of minicircle DNA relative to the control
assay metric: IC50 (µM)
Give the quantity in µM, number only.

COc1cc([C@@H]2c3cc4c(cc3[C@@H](CC(=O)N3CCC(N5CCCCC5)CC3)C3COC(=O)[C@@H]32)OCO4)cc(OC)c1O.Cl (some centres not stated)
266
COc1cc([C@@H]2c3cc4c(cc3[C@@H](CCN3CCOCC3)C3COC(=O)[C@@H]32)OCO4)cc(OC)c1O.Cl (some centres not stated)
58.3
COc1cc([C@@H]2c3cc4c(cc3[C@@H](CCCO)C3COC(=O)[C@@H]32)OCO4)cc(OC)c1O (some centres not stated)
42.1
CCN(CC)CCN(C)CC[C@@H]1c2cc3c(cc2[C@@H](c2cc(OC)c(O)c(OC)c2)[C@H]2C(=O)OCC12)OCO3.Cl.Cl (some centres not stated)
53.8
COc1cc([C@@H]2c3cc4c(cc3[C@@H](CCN(C)CCCN(C)C)C3COC(=O)[C@@H]32)OCO4)cc(OC)c1O.Cl.Cl (some centres not stated)
26.9

Ask: Looking for the measured IC50 of CCCCCCN(C)CC[C@@H]1c2cc3c(cc2[C@@H](c2cc(OC)c(O)c(OC)c2)[C@H]2C(=O)OCC12)OCO3.Cl (some centres not stated) , can you help?
Reply: 61.4

Ask: Continue with COc1cc([C@@H]2c3cc4c(cc3[C@@H](CCN(C)CCN3CCOCC3)C3COC(=O)[C@@H]32)OCO4)cc(OC)c1O.Cl.Cl (some centres not stated)
Reply: 116
